compounds and their reported inhibition (INH)
Tested on: KB
Assay remarks: Growth inhibition of human KB cells […] after 72 hrs by MTS assay
Type: functional
Response body: numeric value in %, unit text excluded.

Examples from the recorded data:
{"columns": ["Query smiles", "Tested system", "Property measured", "Numeric value"],
 "data": [
  ["COc1ccc(/C=C/C(=O)c2c(OC)c(OC)c(OC)c(OC)c2OC)cc1N", "KB", "inhibition (INH)", 29],
  ["COc1ccc(/C=C/C(=O)c2c(O)c(OC)c(OC)c(OC)c2OC)cc1N", "KB", "inhibition (INH)", 40],
  ["COc1ccc(/C=C/C(=O)c2cc(OC)c(OC)c(OC)c2)cc1O", "KB", "inhibition (INH)", 100],
  ["COc1ccc(/C=C/C(=O)c2c(O)c(OC)c(OC)c(OC)c2OC)cc1O", "KB", "inhibition (INH)", 49],
  ["COc1ccc(/C=C/C(=O)c2cc(OC)c(OC)c(OC)c2)cc1N", "KB", "inhibition (INH)", 100]
]}

// recorded inhibition (INH) for `COc1ccc(/C=C/C(=O)c2c(OC)c(OC)c(OC)c(OC)c2OC)cc1O` : 22

// recorded inhibition (INH) for `COc1ccc(/C=C/C(=O)c2c(OC)c(OC)c(OC)c(OC)c2OC)cc1[N+](=O)[O-]` : 19

// recorded inhibition (INH) for `COc1cc(C(=O)/C=C/c2cccc([N+](=O)[O-])c2)cc(OC)c1OC` : 29

// recorded inhibition (INH) for `COc1ccc(/C=C/C(=O)c2cc(OC)c(OC)c(OC)c2)cc1[N+](=O)[O-]` : 44

// recorded inhibition (INH) for `COc1c(O)c(C(=O)/C=C/c2cccc([N+](=O)[O-])c2)c(OC)c(OC)c1OC` : 31

// recorded inhibition (INH) for `COc1ccc(/C=C/C(=O)c2c(O)c(OC)c(OC)c(OC)c2OC)cc1[N+](=O)[O-]` : 43

----------
compounds and their reported pIC50
Tested on: Leishmania amazonensis
Assay remarks: Antileishmanial activity against Leishmania amazonensis LV9 ([…]/M1841) amastigotes infected in mouse macrophage after 30 hrs by MTT assay
Assay type: functional, organism-based
Please treat pIC50 as minus the base-10 logarithm of the molar concentration.

{"columns": ["Query smiles", "Tested system", "pIC50"],
 "data": [
  ["COc1c(O)c(C(=O)/C=C/c2cccc([N+](=O)[O-])c2)c(OC)c(OC)c1OC", "Leishmania amazonensis", 4.59]
]}

Please find the next compound below.
// recorded pIC50 for `COc1cc(C(=O)/C=C/c2cccc([N+](=O)[O-])c2)cc(OC)c1OC` : 4.59

----------
Assay remarks: Inhibition of tubulin assembly assessed as ratio of IC50 for drug to IC50 for deoxypodophyllotoxin
compounds and their reported Ratio IC50
Enter the number alone.

{"columns": ["Query smiles", "Numeric value"],
 "data": [
  ["COc1ccc(/C=C/C(=O)c2c(O)c(OC)c(OC)c(OC)c2OC)cc1O", 3.8],
  ["COc1ccc(/C=C/C(=O)c2cc(OC)c(OC)c(OC)c2)cc1N", 1],
  ["COc1ccc(/C=C/C(=O)c2c(O)c(OC)c(OC)c(OC)c2OC)cc1N", 4.1]
]}

Please find the next compound below.
// recorded Ratio IC50 for `COc1ccc(/C=C/C(=O)c2cc(OC)c(OC)c(OC)c2)cc1O` : 1.3

Data provenance: ChEMBL document CHEMBL1139261
